inhibition at 0.1 µM overview
Target: LYPLA1 (Mus musculus, UniProt P97823)
Construct: a complex proteome endogenously expressing LYPLA1/2 was incubated with test compound; from tissue; host or cells: mouse brain, membrane fraction
Sequence (P97823 whole entry): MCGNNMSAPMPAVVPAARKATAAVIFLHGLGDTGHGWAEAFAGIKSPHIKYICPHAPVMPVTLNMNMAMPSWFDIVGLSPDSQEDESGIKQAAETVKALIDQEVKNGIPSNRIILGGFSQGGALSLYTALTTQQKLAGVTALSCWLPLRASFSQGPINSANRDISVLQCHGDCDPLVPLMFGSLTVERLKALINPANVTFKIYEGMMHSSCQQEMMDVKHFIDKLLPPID
Test: Gel-based competitive ABPP in vitro, mouse brain membrane proteome
Type: biochemical
Settings: 0.1 μM compound, 30 min, one replicate; read-out: LYPLA1 % INH 0.1 μM
Procedure: Assay Overview: The purpose of this assay was to determine whether test compounds can inhibit LYPLA1 and LYPLA2 in a complex proteomic lysate and to assess anti-target inhibition using a competitive activity-based proteomic profiling (ABPP) assay. […] The reaction products were separated by SDS-PAGE and visualized in-gel using a flatbed fluorescence scanner. The percentage activity remaining was determined by measuring the integrated optical density of the bands. […]
Include the unit after the number when you answer.

The examples below pair each entry with its known result.
CC(C)(C)OC(=O)N1CCN2C(=O)N(OC(=O)N3CCCCC3)C(=O)C2C1 (stereo not drawn) ... 0%
O=C(ON1C(=O)C2CN(C(=O)c3ccc(Br)cc3)CCN2C1=O)N1CCC(CCc2ccc(Cl)cc2)CC1 (stereo not drawn) ... 0%
CC(C)(C)OC(=O)N1CCN2C(=O)N(OC(=O)N3CCC(CCc4ccc(Cl)cc4)CC3)C(=O)C2C1 (stereo not drawn) ... 50%
O=C(ON1C(=O)C2CN(C(=O)N3CCCC3)CCN2C1=O)N1CCC(CCc2ccc(Cl)cc2)CC1 (stereo not drawn) ... 50%
O=C(ON1C(=O)C2CN(CCc3ccccc3)CCN2C1=O)N1CCC(CCc2ccc(Cl)cc2)CC1 (stereo not drawn) ... 0%
CC(C)(C)OC(=O)N1CCN2C(=O)N(OC(=O)N3CCN(C(c4ccc(Cl)cc4)c4ccc(Cl)cc4)CC3)C(=O)C2C1 (stereo not drawn) ... 0%

Q) So what does the record say about inhibition at 0.1 µM for CC(C)(C)OC(=O)N1CCN2C(=O)N(OC(=O)N3CCOCC3Cc3ccccc3)C(=O)C2C1 (stereo not drawn) ?
A) 0%

Q) And the next one, O=C(ON1C(=O)C2CN(Cc3ccc(Br)cc3)CCN2C1=O)N1CCC(CCc2ccc(Cl)cc2)CC1 (stereo not drawn) ?
A) 0%

Q) And the next one, COC(=O)C1CCN(C(=O)ON2C(=O)C3CN(C(=O)OC(C)(C)C)CCN3C2=O)CC1 (stereo not drawn) ?
A) 0%

Q) And the next one, CC(C)(C)OC(=O)N1CCN2C(=O)N(OC(=O)N3CCC(C(=O)Nc4ccccc4)CC3)C(=O)C2C1 (stereo not drawn) ?
A) 0%

Q) And the next one, O=C(Cc1ccccc1)N1CCN2C(=O)N(OC(=O)N3CCC(CCc4ccc(Cl)cc4)CC3)C(=O)C2C1 (stereo not drawn) ?
A) 25%

Q) And the next one, CCN(C(=O)C1CCN(C(=O)ON2C(=O)C3CN(C(=O)OC(C)(C)C)CCN3C2=O)CC1)c1ccccc1 (stereo not drawn) ?
A) 0%

Q) And the next one, CC(C)(C)CC(=O)N1CCN2C(=O)N(OC(=O)N3CCC(CCc4ccc(Cl)cc4)CC3)C(=O)C2C1 (stereo not drawn) ?
A) 80%

Q) And the next one, O=C(ON1C(=O)C2CN(C(=O)N3CCCCC3)CCN2C1=O)N1CCC(CCc2ccc(Cl)cc2)CC1 (stereo not drawn) ?
A) 50%

Q) And the next one, CC(C)(C)OC(=O)N1CCN2C(=O)N(OC(=O)N3CCN(CCc4ccccc4)CC3)C(=O)C2C1 (stereo not drawn) ?
A) 0%
